Molecular target: P-gp (Homo sapiens, UniProt P08183)
Sequence (P08183 whole entry): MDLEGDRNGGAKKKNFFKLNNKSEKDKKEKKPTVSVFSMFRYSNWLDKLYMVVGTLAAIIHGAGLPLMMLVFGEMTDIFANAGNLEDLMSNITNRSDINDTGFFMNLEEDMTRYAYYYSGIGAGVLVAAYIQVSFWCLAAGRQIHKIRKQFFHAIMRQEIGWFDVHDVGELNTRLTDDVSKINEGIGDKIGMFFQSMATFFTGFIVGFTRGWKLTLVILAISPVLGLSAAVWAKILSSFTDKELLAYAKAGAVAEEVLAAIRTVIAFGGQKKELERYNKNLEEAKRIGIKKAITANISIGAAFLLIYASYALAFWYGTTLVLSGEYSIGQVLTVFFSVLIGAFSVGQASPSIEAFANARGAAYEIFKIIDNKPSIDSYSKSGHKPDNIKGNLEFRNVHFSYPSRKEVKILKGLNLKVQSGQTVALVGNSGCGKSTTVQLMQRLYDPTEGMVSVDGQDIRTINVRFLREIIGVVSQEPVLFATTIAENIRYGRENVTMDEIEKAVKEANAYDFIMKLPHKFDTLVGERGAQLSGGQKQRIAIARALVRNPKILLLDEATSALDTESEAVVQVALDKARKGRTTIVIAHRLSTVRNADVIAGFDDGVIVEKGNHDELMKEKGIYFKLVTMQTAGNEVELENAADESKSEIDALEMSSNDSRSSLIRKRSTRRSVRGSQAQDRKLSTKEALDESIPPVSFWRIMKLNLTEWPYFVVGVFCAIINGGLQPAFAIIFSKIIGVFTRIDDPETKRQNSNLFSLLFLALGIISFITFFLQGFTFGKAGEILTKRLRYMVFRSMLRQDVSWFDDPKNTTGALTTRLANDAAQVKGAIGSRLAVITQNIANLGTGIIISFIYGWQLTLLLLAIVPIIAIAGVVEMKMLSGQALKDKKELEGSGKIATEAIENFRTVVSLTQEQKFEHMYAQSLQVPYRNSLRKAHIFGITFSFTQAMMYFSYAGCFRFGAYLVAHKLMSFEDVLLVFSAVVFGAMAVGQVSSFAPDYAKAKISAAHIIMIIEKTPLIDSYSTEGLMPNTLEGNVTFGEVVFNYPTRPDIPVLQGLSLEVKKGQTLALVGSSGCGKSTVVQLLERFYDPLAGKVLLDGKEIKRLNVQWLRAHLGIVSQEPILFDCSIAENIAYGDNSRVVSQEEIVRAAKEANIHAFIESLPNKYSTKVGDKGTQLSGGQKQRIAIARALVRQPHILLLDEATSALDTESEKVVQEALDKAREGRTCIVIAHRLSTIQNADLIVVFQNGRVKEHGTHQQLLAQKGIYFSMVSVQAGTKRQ
Test: Rhodamine 123 intracellular accumulation assay in K562/Dox (flow cytometry)
Conditions: Rho123, K562/Dox, 25 µM
The entries below come with measured FAR (fluorescence activity ratio) values attached.
test.readout: FAR (fluorescence activity ratio)

- molecule.smiles: "C=C(C)[C@@H]1CC[C@]2(COC(=O)NCCc3ccc(OC)c(OC)c3)CC[C@]3(C)[C@H](CC[C@@H]4[C@@]5(C)CC[C@H](O)C(C)(C)[C@@H]5CC[C@]43C)[C@@H]12"
  test.readout: "FAR (fluorescence activity ratio)"
  observed.value: 1.95
- molecule.smiles: "C=C(C)[C@@H]1CC[C@]2(COC(=O)NCc3cc(OC)c(OC)c(OC)c3)CC[C@]3(C)[C@H](CC[C@@H]4[C@@]5(C)CC[C@H](O)C(C)(C)[C@@H]5CC[C@]43C)[C@@H]12"
  test.readout: "FAR (fluorescence activity ratio)"
  observed.value: 2.48
- molecule.smiles: "C=C(C)[C@@H]1CC[C@]2(COC(=O)NCCc3cc(OC)c(OC)c(OC)c3)CC[C@]3(C)[C@H](CC[C@@H]4[C@@]5(C)CC[C@H](O)C(C)(C)[C@@H]5CC[C@]43C)[C@@H]12"
  test.readout: "FAR (fluorescence activity ratio)"
  observed.value: 3.47
- molecule.smiles: "C=C(C)[C@@H]1CC[C@]2(COC(=O)Nc3cc(OC)c(OC)c(OC)c3)CC[C@]3(C)[C@H](CC[C@@H]4[C@@]5(C)CC[C@H](O)C(C)(C)[C@@H]5CC[C@]43C)[C@@H]12"
  test.readout: "FAR (fluorescence activity ratio)"
  observed.value: 1.33
- molecule.smiles: "C=C(C)[C@@H]1CC[C@]2(COC(=O)NCCN3CCN(C(=O)OC(C)(C)C)CC3)CC[C@]3(C)[C@H](CC[C@@H]4[C@@]5(C)CC[C@H](O)C(C)(C)[C@@H]5CC[C@]43C)[C@@H]12"
  test.readout: "FAR (fluorescence activity ratio)"
  observed.value: 1.68
